Data credit: ChEMBL document CHEMBL1149480

Tested on: HFF
Test: Cytotoxicity against HFF cells
Assay type: functional, cell-based
Settings: Homo sapiens
PROPERTY MEASURED: IC50

{"COMPOUND": "Nc1ccn(C[C@@H](CO)OCP(=O)(O)O)c(=O)n1.O.O [CIDOFOVIR]", "VAL": "> 100 µM"}
{"COMPOUND": "Cc1nc(N(C)c2ccccc2)nc(-n2ccnc2C)c1[N+](=O)[O-]", "VAL": "100 µM"}

Request: Write down the reported IC50 of Nc1nc2c(ncn2COC(CO)CO)c(=O)[nH]1 [GANCICLOVIR] , test system: HFF.
Response: > 100 µM

Request: Item Cc1nc(N(C)Cc2ccccc2)nc(-n2ccnc2C)c1[N+](=O)[O-] with HFF - IC50?
Response: > 100 µM

Request: Query IC50 on HFF for Cc1nc(NC2CCc3ccccc32)nc(-n2ccnc2C)c1[N+](=O)[O-] (stereo not given)
Response: > 100 µM

###

Tested on: HFF
Assay: Antiviral activity against human CMV by luciferase reporter gene assay in HFF cells
Type: functional, cell-based
The following molecules are listed with their measured pIC50 values.
Please note pIC50 is a logarithmic value: minus log10 of concentration in mol/L. Answer with that number alone.

Solved entries:
{"SMILES CODE": "Cc1nc(N(C)Cc2ccccc2)nc(-n2ccnc2C)c1[N+](=O)[O-]", "MEASURED TARGET": "HFF", "VAL": 7.41}
{"SMILES CODE": "Cc1nccn1-c1nc(N(C)Cc2ccccc2)ncc1[N+](=O)[O-]", "MEASURED TARGET": "HFF", "VAL": 5.52}
{"SMILES CODE": "Cc1nccn1-c1nc(N(C)Cc2ccccc2)nc(CCN(C)C)c1[N+](=O)[O-]", "MEASURED TARGET": "HFF", "VAL": 5.22}
{"SMILES CODE": "Cc1cn(-c2nc(N(C)Cc3ccccc3)nc(C)c2[N+](=O)[O-])cn1", "MEASURED TARGET": "HFF", "VAL": 5.00}
{"SMILES CODE": "Cc1nc(N(C)Cc2ccccc2)nc(-n2ccnc2-c2ccccc2)c1[N+](=O)[O-]", "MEASURED TARGET": "HFF", "VAL": 5.30}

Now turn to the next molecule.
Request: State its pIC50 on HFF: Cc1nc(N(C)Cc2ccccc2)nc(-n2ccnc2)c1[N+](=O)[O-]
Response: 7.70

###

Test system: HFF
Experiment: Antiviral activity against human CMV by luciferase reporter gene assay in HFF cells
Type: functional, cell-based
IC50 reference
Please respond with the number in µM and leave the unit unwritten.

Some solved cases for reference:
{"SMILES CODE": "CCc1nccn1-c1nc(N(C)Cc2ccccc2)nc(C)c1[N+](=O)[O-]", "UNIT SYMBOL": "µM", "IC50": 0.19}
{"SMILES CODE": "Cc1nccn1-c1nc(N(C)Cc2ccccc2)nc(C(C)C)c1[N+](=O)[O-]", "UNIT SYMBOL": "µM", "IC50": 3}
{"SMILES CODE": "Cc1nc(N(C)Cc2ccccc2)nc(-n2ccnc2C(C)C)c1[N+](=O)[O-]", "UNIT SYMBOL": "µM", "IC50": 0.77}
{"SMILES CODE": "CCc1nc(N(C)Cc2ccccc2)nc(-n2ccnc2C)c1[N+](=O)[O-]", "UNIT SYMBOL": "µM", "IC50": 0.17}

Request: Param item = Cc1nc(N(C)c2ccccc2)nc(-n2ccnc2C)c1[N+](=O)[O-] ; retrieve measured IC50.
Response: 0.55
